For each entry below, report its pKd value.
measurement target: human orexin 1 receptor (Homo sapiens)
Construct: expressed in transfected cells
Sequence (O43613 1-425): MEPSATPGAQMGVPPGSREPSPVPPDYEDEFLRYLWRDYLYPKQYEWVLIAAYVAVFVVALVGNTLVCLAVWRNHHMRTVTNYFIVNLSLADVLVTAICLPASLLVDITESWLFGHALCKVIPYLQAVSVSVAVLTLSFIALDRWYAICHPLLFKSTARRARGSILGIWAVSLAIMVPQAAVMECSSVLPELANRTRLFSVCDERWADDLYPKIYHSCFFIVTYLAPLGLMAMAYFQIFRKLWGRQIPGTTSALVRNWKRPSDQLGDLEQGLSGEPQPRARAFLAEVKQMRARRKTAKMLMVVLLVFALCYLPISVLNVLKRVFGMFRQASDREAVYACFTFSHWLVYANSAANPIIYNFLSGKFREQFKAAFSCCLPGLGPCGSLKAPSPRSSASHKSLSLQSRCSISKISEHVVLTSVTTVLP
assay comment: Radioligand binding assay ([3H]-SB649868 competition), human orexin 1 receptor
condition label: radioligand [3H]-SB649868; read-out: Binding hOx1R Kd
Numbers only, as −log10 of the molar value.

>>> readout_value("Cc1cc(C)nc(N2CCC3(CC2)OCCN(Cc2c[nH]c4ccc(F)cc24)C3=O)n1 [Example 2.6]")
5.97
>>> readout_value("Cc1cc(C)nc(N2CCC3(CC2)NCCN(Cc2nn(C)cc2-c2cccc(Cl)c2)C3=O)n1 [Example 1.42]")
5.19
>>> readout_value("COc1cccc(-c2n[nH]nc2CN2CCOC3(CCN(c4nc(C)cc(C)n4)CC3)C2=O)c1 [Example 2.17]")
6.44
>>> readout_value("Cc1cc(C)nc(N2CCC3(CC2)OCCN(Cc2c[nH]c4ccccc24)C3=O)n1 [Example 2.1]")
5.88
>>> readout_value("COc1cc(C)nc(N2CCC3(CC2)OCCN(Cc2c[nH]c4ccccc24)C3=O)n1 [Example 2.18]")
6.20
>>> readout_value("Cc1cc(C#N)nc(N2CCC3(CC2)NCCN(Cc2c[nH]c4ccccc24)C3=O)n1 [Example 1.40]")
5.28
>>> readout_value("COc1cc(C)nc(N2CC[C@]3(CCCN(Cc4c[nH]c5ccccc45)C3=O)C2)n1 (single isomer, unassigned) [Example 7.9]")
7.92
>>> readout_value("O=C1COCC2(CCN(c3cnc4ccccc4n3)CC2)N1Cc1cccc(-c2ccccn2)c1 [Example 8.11]")
7.28

Hi team, please reply with pKd for each item in this list.
1. COc1cccc(-c2ocnc2CN2CCNC3(CCN(c4nc(C)cc(C#N)n4)CC3)C2=O)c1 [Example 1.11]
2. O=C1OCC2(CCN(c3cnc4ccccc4n3)CC2)N1Cc1cccc2[nH]ccc12 [Example 8.22]
3. COCCOc1cccc(-c2nn(C)nc2CN2CCNC3(CCN(c4nc(C)cc(C)n4)CC3)C2=O)c1 [Example 1.78]
4. Cc1ccc(C)c(CN2C(=O)CCC23CCN(c2cnc4ccccc4n2)CC3)c1 [Example 8.5]
5. Cc1cc(C)nc(N2CCC3(CC2)NCCN(Cc2nn(C)nc2-c2ccc4c(c2)OCCO4)C3=O)n1 [Example 1.80]
6. COc1cccc(-c2sc(C)nc2CN2CCNC3(CCN(c4nc(C)cc(C)n4)CC3)C2=O)c1 [Example 1.24]
7. COc1cc(C)nc(N2CCC3(CCN(Cc4nn(C)nc4-c4cccc(C)c4)C3=O)C2)n1 (stereo not shown) [Example 5.44]
8. O=C1CCC2(CCN(c3cnc4ccccc4n3)CC2)N1Cc1cccc2[nH]ccc12 [Example 8.1]

Reply:
1: 5.65; 2: 6.01; 3: 6.15; 4: 7.09; 5: 6.07; 6: 6.03; 7: 6.97; 8: 6.83
